Just for reference, patent US20240383958A1 is where these values come from.

experiment: Proteolysis during production detected using mass spectroscopy; type: physicochemical; conditions: proteolytic stability
ATTRIBUTE MEASURED: Proteolysis During Production?

* ELA-F: Fc-linker fusion of elabela analogue KLRKHNCLKRRCMPLHSRVPFP (Q9K) (protein) MRAWIFFLLCLAGRALADKTHTSPPSPAPEAAGGPSVFLFPPKPKDTLMISRTPEVTCVVVDVSHEDPEVKFNWYVDGVEVHNAKTKPREEQYNSTYRVVSVLTVLHQDWLNGKEYKCKVSNKALPAPIEKTISKAKGQPREPQVYTLPPSREEMTKNQVNLTCLVKGFYPSDIAVEWESNGQPENNYKTTPPVLDSDGSFFLNSTLTVDKSRWQQGNVFSCSVMHEALHNHYTQKSLSLSPGKGGGGSGGGGSGGGGSKLRKHNCLKRRCMPLHSRVPFP | No
* APL-E: Fc-linker fusion of apelin analogue QRPRLSHKGPHPF (M11H) (protein) MRAWIFFLLCLAGRALADKTHTSPPSPAPEAAGGPSVFLFPPKPKDTLMISRTPEVTCVVVDVSHEDPEVKFNWYVDGVEVHNAKTKPREEQYNSTYRVVSVLTVLHQDWLNGKEYKCKVSNKALPAPIEKTISKAKGQPREPQVYTLPPSREEMTKNQVNLTCLVKGFYPSDIAVEWESNGQPENNYKTTPPVLDSDGSFFLNSTLTVDKSRWQQGNVFSCSVMHEALHNHYTQKSLSLSPGKGGGGSGGGGSGGGGSQRPRLSHKGPHPF | Yes
* ELA-H: Fc-linker fusion of elabela analogue KLRKHNCLQRRCMPYHSRVPFP (L15Y) (protein) MRAWIFFLLCLAGRALADKTHTSPPSPAPEAAGGPSVFLFPPKPKDTLMISRTPEVTCVVVDVSHEDPEVKFNWYVDGVEVHNAKTKPREEQYNSTYRVVSVLTVLHQDWLNGKEYKCKVSNKALPAPIEKTISKAKGQPREPQVYTLPPSREEMTKNQVNLTCLVKGFYPSDIAVEWESNGQPENNYKTTPPVLDSDGSFFLNSTLTVDKSRWQQGNVFSCSVMHEALHNHYTQKSLSLSPGKGGGGSGGGGSGGGGSKLRKHNCLQRRCMPYHSRVPFP | No
